Target: T1, HLA-B*07:02 (human)
T1 construct: also called peptide-receptive MHC molecules
Assay: UV-exchange b2m ELISA; exchange-yield grade
Let's look at some binders and their measured peptide exchange yield.

[
  {
    "binder": "SPVPVTSLF",
    "reading": "50 to 75%"
  }
]

Now examine the next entry.
Which peptide exchange yield value belongs to `SPLPVTSLI` ?
50 to 75%
